B1: OR4K15 (parent)
chain: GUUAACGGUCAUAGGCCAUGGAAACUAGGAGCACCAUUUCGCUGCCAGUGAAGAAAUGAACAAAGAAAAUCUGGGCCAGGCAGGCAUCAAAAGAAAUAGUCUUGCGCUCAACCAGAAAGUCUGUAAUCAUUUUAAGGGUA

Variants of: B1
Experiment: self-cleavage, relative activity (ratio to wild type); higher = more cleavage; in vitro, sequencing; the parent is a self-cleaving ribozyme
What self-cleavage was measured for each of the following?
A bare number is all that is needed in reply.

Which self-cleavage is reported for this variant? A36U A54G
1.02

Recorded self-cleavage of A33C U124G , please.
1.02

Query (variant): A52U A116G ; field requested: self-cleavage
1

Would you kindly share the measured self-cleavage for A33U U70C ?
1

What self-cleavage value was documented for this variant, A66U A67G ?
0.98

Could you share which self-cleavage value was measured for C17U A54G ?
1.02
